tgt: Ephrin type-B receptor 2 (Homo sapiens) (UniProt P29323)
Sequence (P29323 whole entry): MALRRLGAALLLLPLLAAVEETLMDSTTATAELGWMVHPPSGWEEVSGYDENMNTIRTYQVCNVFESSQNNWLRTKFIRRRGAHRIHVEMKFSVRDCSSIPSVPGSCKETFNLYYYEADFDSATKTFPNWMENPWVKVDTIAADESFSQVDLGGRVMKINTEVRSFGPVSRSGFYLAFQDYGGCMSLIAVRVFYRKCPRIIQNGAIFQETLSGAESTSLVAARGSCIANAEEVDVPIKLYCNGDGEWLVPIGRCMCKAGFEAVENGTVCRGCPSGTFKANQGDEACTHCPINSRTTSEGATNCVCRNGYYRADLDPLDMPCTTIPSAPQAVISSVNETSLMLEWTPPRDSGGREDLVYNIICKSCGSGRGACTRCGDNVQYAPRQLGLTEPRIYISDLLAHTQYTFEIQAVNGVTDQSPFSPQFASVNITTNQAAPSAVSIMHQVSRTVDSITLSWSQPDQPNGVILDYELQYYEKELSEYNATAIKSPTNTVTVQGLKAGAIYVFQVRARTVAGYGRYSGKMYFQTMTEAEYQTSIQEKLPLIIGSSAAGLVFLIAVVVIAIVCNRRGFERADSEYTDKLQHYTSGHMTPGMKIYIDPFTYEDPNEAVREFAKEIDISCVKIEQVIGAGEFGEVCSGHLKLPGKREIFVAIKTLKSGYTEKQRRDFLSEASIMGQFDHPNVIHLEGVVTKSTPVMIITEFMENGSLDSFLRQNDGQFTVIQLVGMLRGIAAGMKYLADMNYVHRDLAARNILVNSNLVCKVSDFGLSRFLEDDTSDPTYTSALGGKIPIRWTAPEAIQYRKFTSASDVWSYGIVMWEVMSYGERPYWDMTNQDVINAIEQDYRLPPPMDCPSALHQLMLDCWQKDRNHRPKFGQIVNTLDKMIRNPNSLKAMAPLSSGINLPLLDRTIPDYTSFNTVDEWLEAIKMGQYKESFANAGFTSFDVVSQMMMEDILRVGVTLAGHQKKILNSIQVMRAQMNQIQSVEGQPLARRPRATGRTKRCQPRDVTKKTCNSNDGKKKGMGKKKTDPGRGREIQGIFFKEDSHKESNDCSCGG
conditions: at 1 µM
Description: GSK_PKIS: EPHB2 mean inhibition at 1 uM [Nanosyn]
property.measured: inhibition (%)
Your answer is read as %, so omit the unit and give the number.

Worked set:
• O=C(Nc1n[nH]c2cc(-c3ccccc3)ccc12)C1CC1 = 17.1
• COc1cc2ncn(-c3cc(OCc4ccccc4C(F)(F)F)c(C(C)=O)s3)c2cc1OC = 9
• N#Cc1ccc(Oc2nccc(-c3c(-c4ccc(F)cc4)ncn3C3CCNCC3)n2)cc1 = 10.3
• O=C(Nc1n[nH]c2nc(-c3ccco3)ccc12)C1CC1 = 12.7
• O=C1Nc2ccc(I)cc2C1=Cc1cc(Br)c(O)c(Br)c1 = 6.84

Value lookup for inhibition; key = "O=C(Nc1n[nH]c2nc(-c3ccc(O)cc3)c(Br)cc12)C1CC1"
37.8

Value lookup for inhibition; key = "COc1ccc2ncn(-c3cc(O[C@H](C)c4ccccc4Cl)c(C(N)=O)s3)c2c1"
12

Value lookup for inhibition; key = "CCc1cccc(CC)c1/C=C/c1cncc(C(=O)NC)c1"
11.1

Value lookup for inhibition; key = "Fc1ccc(-c2ncn(C3CCNCC3)c2-c2ccnc(Oc3ccc(Oc4ccccc4)cc3)n2)cc1"
7.3

Value lookup for inhibition; key = "CNC(=O)c1cncc(/C=C/c2c(C)cccc2C)c1"
65.9

Value lookup for inhibition; key = "NS(=O)(=O)c1ccc(N/N=C2\C(=O)Nc3ccc(C(=O)NCCCn4ccnc4)cc32)cc1"
13.3

---

tgt: Vascular endothelial growth factor receptor 2 (Homo sapiens)
conditions: at 0.1 µM
Description: GSK_PKIS: KDR mean inhibition at 0.1 uM [Nanosyn]
property.measured: inhibition (%)
Your answer is read as %, so omit the unit and give the number.

Worked set:
* O=C(Nc1n[nH]c2nc(-c3ccc(O)cc3)c(Br)cc12)C1CC1 | 36.2
* Fc1ccc(-c2ncn(C3CCNCC3)c2-c2ccnc(Oc3ccc(Oc4ccccc4)cc3)n2)cc1 | 2.97
* CNC(=O)c1cncc(/C=C/c2c(C)cccc2C)c1 | 3.77
* COc1cc2ncn(-c3cc(OCCc4ccccc4)c(C(N)=O)s3)c2cc1OC | 3.48
* CCC(=O)Nc1ccc(C)c(-c2ccc(C(=O)NCC3CC3)cc2)c1 | 3.67

Value lookup for inhibition; key = "COc1cc(N2CCN(C(C)C)CC2)ccc1Nc1nc(Nc2ccc(F)cc2C(=O)NC[C@@H](O)CO)c2cc[nH]c2n1"
5.49

Value lookup for inhibition; key = "FC(F)(F)c1cccc(Nc2nccc(-c3cnn4nc(-c5ccccc5)ccc34)n2)c1"
0.05

Value lookup for inhibition; key = "COc1cccc(/C=N/Nc2ncnc3c2cnn3-c2cccc(OC)c2)c1"
5.88

---

Listing of recorded inhibition by entry.
tgt: Mitogen-activated protein kinase 3 (Homo sapiens) (UniProt P27361)
Sequence (P27361 whole entry): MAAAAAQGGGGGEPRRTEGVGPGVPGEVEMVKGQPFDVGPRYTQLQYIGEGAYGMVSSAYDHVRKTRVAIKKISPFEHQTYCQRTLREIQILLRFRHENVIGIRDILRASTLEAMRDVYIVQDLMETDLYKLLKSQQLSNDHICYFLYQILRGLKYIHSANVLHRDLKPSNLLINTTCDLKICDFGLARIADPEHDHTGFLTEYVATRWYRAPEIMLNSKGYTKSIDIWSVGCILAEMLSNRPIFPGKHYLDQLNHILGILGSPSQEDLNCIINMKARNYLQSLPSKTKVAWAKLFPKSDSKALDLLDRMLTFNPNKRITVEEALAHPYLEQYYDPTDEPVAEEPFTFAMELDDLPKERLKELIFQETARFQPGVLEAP
conditions: at 1 µM
Your answer is read as %, so omit the unit and give the number.

Worked set:
* COc1ccc(C2=C(N3CCc4ccccc43)C(=O)NC2=O)cc1 | 5.25
* O=C(Nc1n[nH]c2nc(-c3ccco3)ccc12)C1CC1 | 1.35
* Clc1ccc(CNc2nccc(-c3cnn4ncccc34)n2)cc1 | 1.44

# ---- query compound ----
Value lookup for inhibition; key = "CCc1nccc2c1nc(-c1nonc1N)n2CC"
1.77

---

tgt: Vascular endothelial growth factor receptor 1 (Homo sapiens) (UniProt P17948)
Sequence (P17948 whole entry): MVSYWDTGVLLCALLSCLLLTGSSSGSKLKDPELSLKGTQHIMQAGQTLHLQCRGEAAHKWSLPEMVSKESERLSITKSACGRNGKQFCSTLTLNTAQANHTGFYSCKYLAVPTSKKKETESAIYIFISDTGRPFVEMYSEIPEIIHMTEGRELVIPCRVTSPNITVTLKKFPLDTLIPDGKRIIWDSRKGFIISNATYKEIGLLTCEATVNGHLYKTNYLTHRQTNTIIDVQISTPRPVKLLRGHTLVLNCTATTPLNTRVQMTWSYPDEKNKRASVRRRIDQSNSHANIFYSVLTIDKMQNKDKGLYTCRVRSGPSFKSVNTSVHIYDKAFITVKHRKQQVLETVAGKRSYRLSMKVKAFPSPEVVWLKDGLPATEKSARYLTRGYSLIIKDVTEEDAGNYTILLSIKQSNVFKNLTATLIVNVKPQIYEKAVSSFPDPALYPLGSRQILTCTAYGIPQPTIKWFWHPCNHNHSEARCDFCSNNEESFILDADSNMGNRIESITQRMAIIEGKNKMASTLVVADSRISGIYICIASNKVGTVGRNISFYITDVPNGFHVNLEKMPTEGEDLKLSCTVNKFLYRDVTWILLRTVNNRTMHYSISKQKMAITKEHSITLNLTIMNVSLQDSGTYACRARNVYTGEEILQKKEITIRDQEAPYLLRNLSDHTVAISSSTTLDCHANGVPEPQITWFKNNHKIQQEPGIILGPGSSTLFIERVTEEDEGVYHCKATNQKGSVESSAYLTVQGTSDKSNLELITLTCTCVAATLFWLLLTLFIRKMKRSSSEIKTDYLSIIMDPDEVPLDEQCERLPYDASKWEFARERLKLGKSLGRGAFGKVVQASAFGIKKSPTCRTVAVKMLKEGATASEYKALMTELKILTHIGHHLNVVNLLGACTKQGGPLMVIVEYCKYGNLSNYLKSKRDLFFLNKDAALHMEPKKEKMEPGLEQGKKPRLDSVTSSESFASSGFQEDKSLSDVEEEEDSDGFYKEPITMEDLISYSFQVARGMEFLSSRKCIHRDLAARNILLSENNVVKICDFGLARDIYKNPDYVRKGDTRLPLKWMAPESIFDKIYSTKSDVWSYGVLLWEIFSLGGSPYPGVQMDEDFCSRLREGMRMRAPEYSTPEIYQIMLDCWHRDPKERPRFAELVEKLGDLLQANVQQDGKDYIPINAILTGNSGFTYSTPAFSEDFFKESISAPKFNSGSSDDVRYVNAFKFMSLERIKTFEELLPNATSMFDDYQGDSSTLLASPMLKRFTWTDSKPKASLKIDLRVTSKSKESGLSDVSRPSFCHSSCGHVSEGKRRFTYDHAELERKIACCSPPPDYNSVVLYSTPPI
conditions: at 1 µM
Description: GSK_PKIS: FLT1 mean inhibition at 1 uM [Nanosyn]
property.measured: inhibition (%)
Your answer is read as %, so omit the unit and give the number.

Worked set:
- NC(=O)Cc1ccccc1Oc1nccc(-c2c(-c3ccc(F)cc3)ncn2C2CCNCC2)n1: 0.23
- Fc1ccc(-c2ncn(C3CCNCC3)c2-c2ccnc(Oc3ccc(Oc4ccccc4)cc3)n2)cc1: 3.29

# ---- query molecule ----
GET /values?readout=inhibition&system=Vascular endothelial growth factor receptor 1 (Homo sapiens) (UniProt P17948)&item= "NC(=O)c1cc(-c2ccc(F)cc2)cc(-c2ccncc2)c1N"
0.85
